Test: Brain entry in rats (brain and plasma at 5 h)
Format: in vivo
Conditions: male, Fischer 344, rat, brain, ip, 13.25 mg/kg, 13.25 mg/kg I.P., read-out: Brain/plasma ratio
metric.name: Kp at 5 h
Write the value as a bare number.

response.value for Nc1cccc2c1C(=S)N(C1CCC(=O)NC1=O)C2=O (stereo not shown) [3-MP, 3-Monothiopomalidomide] (field: Kp at 5 h) = 0.52

====

Assay: Pharmacokinetics in the rat, I.V. and P.O.
Type: in vivo
Conditions: iv; rat plasma, I.V. bolus 5 mg/kg
Method: To evaluate the metabolism of 3-MP, ex vivo plasma and liver homogenate studies were performed across species (rat and human), and in vivo pharmacokinetic studies were performed in rats following intravenous (I.V.) and oral (P.O.) administration of 3-MP (5 mg/kg) to time-dependently follow its disappearance from the plasma compartment. Fig. 5 3-MP pharmacokinetics. […]
metric.name: AUC(0-t) (ng·h/mL)
Express your answer in ng·h/mL, writing the number without its unit.

Just so you know, measured AUC(0-t) for Nc1cccc2c1C(=S)N(C1CCC(=O)NC1=O)C2=O (stereo not shown) [3-MP, 3-Monothiopomalidomide] came out at 15100

====

Target: Adrenergic Alpha1B receptor (Homo sapiens, UniProt P35368)
Construct: NIMH Psychoactive Drug Screening Program (PDSP)
Sequence (P35368 whole entry): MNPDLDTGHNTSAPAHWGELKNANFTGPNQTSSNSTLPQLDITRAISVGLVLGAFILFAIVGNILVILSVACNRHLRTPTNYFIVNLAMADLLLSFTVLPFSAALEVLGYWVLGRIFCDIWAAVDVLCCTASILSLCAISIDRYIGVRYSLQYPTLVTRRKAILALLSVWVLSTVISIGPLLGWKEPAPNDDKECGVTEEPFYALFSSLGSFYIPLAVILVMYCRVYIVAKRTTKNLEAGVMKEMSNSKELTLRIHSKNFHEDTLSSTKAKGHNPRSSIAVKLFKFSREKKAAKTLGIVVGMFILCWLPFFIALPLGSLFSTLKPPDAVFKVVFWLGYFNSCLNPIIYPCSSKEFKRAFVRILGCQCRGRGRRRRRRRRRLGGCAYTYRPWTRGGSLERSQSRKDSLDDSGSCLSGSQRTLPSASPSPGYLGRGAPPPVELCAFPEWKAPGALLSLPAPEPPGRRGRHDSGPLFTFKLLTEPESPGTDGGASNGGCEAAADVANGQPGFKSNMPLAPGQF
Assay: PDSP radioligand binding
Conditions: read-out: 3-MP concentration required to induce 50% inhibition of PDSP radioligand binding
pIC50: −log10 of the molar value.
metric.name: pIC50

Given item Nc1cccc2c1C(=S)N(C1CCC(=O)NC1=O)C2=O (stereo not shown) [3-MP, 3-Monothiopomalidomide] , the value recorded as its pIC50 is < 5.00

====

Assay: in vitro
Details: Sprague Dawley, rat, microsomes
metric.name: CLint scaled at 1 μM (mL/min/kg)
Numeric answer only, unit mL/min/kg assumed.

Measured CLint scaled at 1 μM of O=C(O)Cc1ccccc1Nc1c(Cl)cccc1Cl [Diclofenac, diclofenac, reference compound] : 227

====

Target: Adrenergic Alpha1D receptor (Homo sapiens, UniProt P25100)
Sequence (P25100 whole entry): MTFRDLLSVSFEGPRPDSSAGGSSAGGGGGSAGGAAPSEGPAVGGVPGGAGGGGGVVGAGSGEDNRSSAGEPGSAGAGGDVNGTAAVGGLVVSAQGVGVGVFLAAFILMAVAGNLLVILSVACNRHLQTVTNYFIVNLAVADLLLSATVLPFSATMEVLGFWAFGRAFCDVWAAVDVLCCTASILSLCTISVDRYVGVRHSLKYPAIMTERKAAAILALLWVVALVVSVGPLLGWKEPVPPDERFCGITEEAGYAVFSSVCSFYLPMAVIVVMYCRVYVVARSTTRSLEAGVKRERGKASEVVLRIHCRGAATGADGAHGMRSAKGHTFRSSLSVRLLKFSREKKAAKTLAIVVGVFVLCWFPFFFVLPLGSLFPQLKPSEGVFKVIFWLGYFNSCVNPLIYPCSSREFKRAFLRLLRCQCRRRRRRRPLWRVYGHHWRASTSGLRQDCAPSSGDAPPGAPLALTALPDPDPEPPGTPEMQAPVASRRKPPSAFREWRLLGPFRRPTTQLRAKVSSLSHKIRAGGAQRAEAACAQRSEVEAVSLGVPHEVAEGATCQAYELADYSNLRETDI
metric.name: IC50

The compound listed as Nc1cccc2c1C(=S)N(C1CCC(=O)NC1=O)C2=O (stereo not shown) [3-MP, 3-Monothiopomalidomide] shows IC50 equal to > 10 µM
